Tested on: HT29 colon
Assay: NCI-60 one-dose screen, 48 h (100 = growth as untreated, 0 = no growth, -100 = all killed)
Conditions: 10 µM unless noted
Compounds without any hit were thinned out: in the full panel of roughly 83,000, 20% have a hit.
Listing of recorded growth by entry.
Report the value in % with no unit label.

compound: O=C1NN(C(=O)c2ccccc2)C(c2ccc(Cl)c(Cl)c2)=C/C1=C\c1ccc([N+](=O)[O-])cc1
measurement.target: HT29 colon
data.value: 101

Ask | Form field: reported growth of CC(c1ccccc1)C(C(=O)c1ccccc1)c1ccccc1 (configuration not stated)
Reply | 75.4

Ask | Form field: reported growth of COC(=O)C(OC(C)=O)C(OC(C)=O)c1ccc(OC)c(OC)c1 (configuration not stated)
Reply | 97.2

Ask | Form field: reported growth of NC(=O)CSSCC(N)=O
Reply | 105

Ask | Form field: reported growth of COc1ccc(C(=O)/C=C/c2cc3ccccc3n3nnnc23)cc1
Reply | 110

Ask | Form field: reported growth of [O-][n+]1c(Cl)cc(Cl)c2ccccc21
Reply | 122

Ask | Form field: reported growth of O=C1Nc2ccccc2/C1=C\c1c(-c2ccc(F)cc2)nc2ccccn12
Reply | 58.7

Ask | Form field: reported growth of COc1cc2nc(-c3ccc(C(F)(F)F)cc3)cc(OCCN3CCCCC3)c2cc1OC
Reply | 46.4

Ask | Form field: reported growth of CN(C)CCC(=O)c1ccc([N+](=O)[O-])cc1
Reply | 96.7

Ask | Form field: reported growth of Nc1n[nH]c2cccc(C#Cc3cccc(C(=O)Nc4cc(CN5CCOCC5)cc(C(F)(F)F)c4)c3)c12
Reply | 18

Ask | Form field: reported growth of COc1cc(C2=NN(C(C)=O)C(c3cc(OC)c(OC)c(OC)c3)C2)ccc1O (configuration not stated)
Reply | 8.21

Ask | Form field: reported growth of C#CCNC(=O)c1cccc2c1cc(C)n2-c1nc2c(c(NCc3ccccc3)n1)CCCC2
Reply | 0.876
